Experiment: Metabolic stability in human liver microsomes
Settings: hepatic in vivo blood clearance calculated with well stirred liver model; 1 µM compound; '(stable)' given beside < 0.01
So basically: is CLblood, human microsomes under 0.2 L/h/kg? Then y. Not under? Then n.

C[C@]1(O)C[C@@H](Nc2nc(N3C[C@@H](O)[C@H](O)C3)c3cnn(-c4cccc(C(F)(F)F)c4)c3n2)C1    y

Does this compound meet the criterion CLblood, human microsomes < 0.2 L/h/kg? O=S1(=O)CCC(Nc2nc(N3CC(N4CCOCC4)C3)c3cnn(-c4cccc(C(F)(F)F)c4)c3n2)CC1
y

Does this compound meet the criterion CLblood, human microsomes < 0.2 L/h/kg? CC1(N2CCOCC2)CN(c2nc(N[C@H]3C[C@H](S(C)(=O)=O)C3)nc3c2cnn3-c2cccc(C(F)(F)F)c2)C1
n

Does this compound meet the criterion CLblood, human microsomes < 0.2 L/h/kg? CC1(O)CCN(C2CN(c3nc(N[C@H]4C[C@H](S(C)(=O)=O)C4)nc4c3cnn4-c3cccc(C(F)(F)F)c3)C2)CC1
n

Does this compound meet the criterion CLblood, human microsomes < 0.2 L/h/kg? CC(C)(O)CC1CN(c2nc(N[C@H]3C[C@H](S(C)(=O)=O)C3)nc3c2cnn3-c2cccc(C(F)F)c2)C1
n

Does this compound meet the criterion CLblood, human microsomes < 0.2 L/h/kg? OC1(CN2CCCC2)CCN(c2nc(N[C@H]3C[C@@H](O)C3)nc3c2cnn3-c2cccc(C(F)(F)F)c2)CC1
n

Values compiled from patent EP3800188A1.
